These data points were gathered from patent US12358904B2.

System: IL-6/pSTAT3
Assay: IL-6 induced pSTAT3 assay in TF-1 cells
Format: cell-based
Conditions: Homo sapiens, read-out: Cellular selectivity (IL-6/pSTAT3)
pIC50: −log10 of the molar value.
pIC50 by entry:
measurement.type: pIC50

[
  {
    "compound": "Cc1cccc(Nc2cc(Nc3ccccc3NS(C)(=O)=O)ncn2)n1 [Compound 53]",
    "measurement.type": "pIC50",
    "result.value": "> 5.40"
  },
  {
    "compound": "Cc1cnnc(Nc2cc(Nc3ccccc3C(N)=O)ncn2)c1 [Compound 47]",
    "measurement.type": "pIC50",
    "result.value": "> 5.40"
  },
  {
    "compound": "COc1cnc(Nc2cc(Nc3ccc([C@H](C)N4CC5(COC5)C4)cn3)ncn2)c(S(C)(=O)=O)c1 [Compound 3]",
    "measurement.type": "pIC50",
    "result.value": "5.00 to 5.40"
  },
  {
    "compound": "C[C@@H](c1ccc(Nc2cc(Nc3ncccc3S(C)(=O)=O)ncn2)nc1C(F)(F)F)N1CC2(COC2)C1 [Compound 11]",
    "measurement.type": "pIC50",
    "result.value": "> 5.40"
  },
  {
    "compound": "CC(C)[C@@H](c1ccc(Nc2cc(Nc3ncccc3S(C)(=O)=O)ncn2)nc1)N1CC2(COC2)C1 [Compound 13]",
    "measurement.type": "pIC50",
    "result.value": "5.00 to 5.40"
  },
  {
    "compound": "CS(=O)(=O)c1ccccc1Nc1cc(Nc2ccc3c(n2)CCCC3N2CC3(CCOCC3)C2)ncn1 (centres unmarked) [Compound 27]",
    "measurement.type": "pIC50",
    "result.value": "< 5.00"
  },
  {
    "compound": "C[C@@H](c1ccc(Nc2cc(Nc3ncc(F)cc3S(C)(=O)=O)ncn2)nc1)N1CC2(COC2)C1 [Compound 2]",
    "measurement.type": "pIC50",
    "result.value": "< 5.00"
  },
  {
    "compound": "C[C@H](c1ccc(Nc2cc(Nc3ncccc3S(C)(=O)=O)ncn2)nc1)N1CC2(COC2)C1 [Compound 17]",
    "measurement.type": "pIC50",
    "result.value": "< 5.00"
  },
  {
    "compound": "Cc1cccc(Nc2cc(Nc3ccccc3C(N)=O)ncn2)n1 [Compound 46]",
    "measurement.type": "pIC50",
    "result.value": "> 5.40"
  },
  {
    "compound": "CC(NC1CC(F)(F)C1)c1ccc(Nc2cc(Nc3ncccc3S(C)(=O)=O)ncn2)nc1 (centres unmarked) [Compound 35]",
    "measurement.type": "pIC50",
    "result.value": "< 5.00"
  },
  {
    "compound": "Cc1ccnc(Nc2cc(Nc3ccccc3C(N)=O)ncn2)c1 [Compound 45]",
    "measurement.type": "pIC50",
    "result.value": "> 5.40"
  },
  {
    "compound": "Cc1ccnc(Nc2cc(Nc3ccccc3S(C)(=O)=O)ncn2)c1 [Compound 44]",
    "measurement.type": "pIC50",
    "result.value": "< 5.00"
  },
  {
    "compound": "Cc1cccc(Nc2cc(Nc3ncccc3S(C)(=O)=O)ncn2)n1 [Compound 18]",
    "measurement.type": "pIC50",
    "result.value": "> 5.40"
  },
  {
    "compound": "CS(=O)(=O)c1cccnc1Nc1cc(Nc2ccc3c(n2)CC[C@@H]3N2CC3(COC3)C2)ncn1 [Compound 9]",
    "measurement.type": "pIC50",
    "result.value": "< 5.00"
  },
  {
    "compound": "C[C@H]1CN(C2CC2)CCN1c1ccc(Nc2cc(Nc3ncccc3S(C)(=O)=O)ncn2)nc1 [Compound 8]",
    "measurement.type": "pIC50",
    "result.value": "5.00 to 5.40"
  },
  {
    "compound": "C[C@@H](c1ccc(Nc2cc(Nc3ncccc3S(C)(=O)=O)ncn2)nc1)N(C)C [Compound 4]",
    "measurement.type": "pIC50",
    "result.value": "5.00 to 5.40"
  },
  {
    "compound": "CC(c1ccc(Nc2cc(Nc3ncccc3S(C)(=O)=O)ncn2)nc1)N1CC(F)C1 (centres unmarked) [Compound 22]",
    "measurement.type": "pIC50",
    "result.value": "5.00 to 5.40"
  }
]
